Assay: chemical genetic growth profiling, strain panel (AID 1159580);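 note: tested at 20 µM; growth read once vehicle control cultures reached saturation at 30 °C; 1 = growth at the plate median or of vehicle wells; lower values mean less growth of the strain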
Settings: S. cerevisiae deletion strains, growth OD, locus YPL256C, strain CLN2
Hit rate of the full screen: of about 5,500 compounds, about 2,000 (36%) were called active. About 18% were inconclusive and are not listed. Cut-off read from the data, not from the text of the source: active = normalized growth mostly below about 0.91 (no sharp cut-off); inconclusive = no clear call, values can overlap the other calls; inactive = mostly above about 0.92. Some of the results follow.
Outcomes: class 1 (active), class 0 (inactive)

# compound, answer.label
records = [
    ("C#C[C@]1(O)CCC2C3CCc4cc(OC)ccc4C3CC[C@@]21C (stereo partly specified)", "class 0"),
    ("CSc1c(C#N)c(-c2ccc(Cl)cc2)nn1C(=O)c1ccccc1Cl", "class 0"),
    ("COc1cc(Cl)c(NS(=O)(=O)c2cc(Br)c(Br)s2)c(OC)c1", "class 1"),
    ("C#C[C@]1(O)CCC2C3CCc4cc(O)ccc4C3CC[C@@]21C (stereo partly specified)", "class 0"),
    ("C=CCN1CC[C@]23c4c5ccc(O)c4OC2C(=O)CC[C@@]3(O)[C@H]1C5 (stereo partly specified)", "class 0"),
    ("CN1CCc2cccc3c2C1Cc1ccc(O)c(O)c1-3 (stereo unspecified)", "class 0"),
    ("COc1cc(C(=O)O)cc(OC)c1O", "class 0"),
    ("Nc1c(Br)cc(Br)cc1CNC1CCC(O)CC1 (stereo unspecified)", "class 0"),
    ("COc1ccc2c(c1O)-c1c(OC)c(OC)cc3c1[C@H](C2)N(C)CC3", "class 0"),
    ("NC(=O)N/N=C\\c1ccc([N+](=O)[O-])o1", "class 0"),
    ("O=C1OC(CN2CCOCC2)CN1/N=C\\c1ccc([N+](=O)[O-])o1 (stereo unspecified)", "class 0"),
]
